From: patent US10934276B2

- target.of.assay: UniProtKB P08173
- procedure.summary: mAChR M4 cell-based functional assay (calcium flux, potentiation of EC20 acetylcholine response in CHO-K1 hM4-Gqi5 cells)
- cond: positive allosteric modulator mode, EC20 acetylcholine; CHO-K1 cells with human M4 and Gqi5
pEC50: −log10 of the molar value.
readout.name: pEC50

Worked set:
Cc1nnc2ccc(C(=O)NC3CN(c4ncc(OC(C)C)cn4)C3)cc2c1C [Compound 20]    5.49
Cc1nnc2ccc(C(=O)NC3CN(c4ccc(C#N)cn4)C3)cc2c1C [Compound 25]    5.99
COc1cc(N2CC(NC(=O)c3ccc4nc(C)cc(C)c4c3)C2)c(Cl)cn1 [Compound 2]    6.27

[A] Cc1cc(C)c2cc(C(=O)NC3CN(c4nccc(Br)c4F)C3)ccc2n1 [Compound 13]
[B] Cc1cc(C)c2cc(C(=O)NC3CN(c4cc(Cl)nc(Cl)c4)C3)ccc2n1 [Compound 9]
[ask] Could you point out whether the larger pEC50 belongs to A or to B ? Return value: the label identifying the chosen record.
[reply] B
(B: 6.43, A: 5.80)

----------
- target.of.assay: Human M4 (Homo sapiens, UniProt P08173)
- Sequence (P08173 1-479): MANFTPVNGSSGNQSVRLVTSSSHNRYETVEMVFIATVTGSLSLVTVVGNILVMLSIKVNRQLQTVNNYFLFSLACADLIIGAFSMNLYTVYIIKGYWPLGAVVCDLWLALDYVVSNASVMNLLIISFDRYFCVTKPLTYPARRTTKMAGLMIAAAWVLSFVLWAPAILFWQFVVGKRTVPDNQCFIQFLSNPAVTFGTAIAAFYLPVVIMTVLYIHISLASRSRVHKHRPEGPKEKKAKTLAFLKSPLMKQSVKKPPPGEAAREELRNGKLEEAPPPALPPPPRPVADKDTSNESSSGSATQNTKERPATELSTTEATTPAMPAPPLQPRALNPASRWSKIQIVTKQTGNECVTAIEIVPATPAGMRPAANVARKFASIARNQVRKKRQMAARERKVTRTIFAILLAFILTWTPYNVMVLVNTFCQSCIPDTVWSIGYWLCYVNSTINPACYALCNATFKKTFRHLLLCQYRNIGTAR
- procedure.summary: mAChR M4 cell-based functional assay (calcium flux, potentiation of EC20 acetylcholine response in CHO-K1 hM4-Gqi5 cells)
- cond: positive allosteric modulator mode, EC20 acetylcholine; CHO-K1 cells with human M4 and Gqi5
- Protocol: Human M4 cDNA, along with the chimeric G protein Gqi5, were transfected into Chinese hamster ovary (CHO—K1) cells purchased from the American Type Culture Collection using Lipofectamine2000. hM4-Gqi5 cells were grown in Ham's F-12 medium containing 10% heat-inactivated fetal bovine serum (FBS), 20 mM HEPES, 50 μg/mL G418 sulfate, and 500 μg/mL Hygromycin B. rM4-Gqi5 cells were grown in DMEM containing 10% heat-inactivated FBS, 20 mM HEPES, 400 μg/mL G418 sulfate, and 500 μg/mL Hygromycin B. […]
pEC50: −log10 of the molar value.
readout.name: pEC50

Below, 2 compounds whose answers are already recorded.
Cc1nnc2ccc(C(=O)NC3CN(c4ncccc4Cl)C3)cc2c1C [Compound 35]    6.02
Cc1nnc2ccc(C(=O)NC3CN(c4ncc(C5CC5)cc4Cl)C3)cc2c1C [Compound 27]    5.86

[a] Cc1nnc2ccc(C(=O)NC3CN(c4cccc(Cl)n4)C3)cc2c1C [Compound 32]
[b] Cc1nnc2ccc(C(=O)NC3CN(c4cccc(F)n4)C3)cc2c1C [Compound 33]
[ask] Higher pEC50 between a and b ? Your answer should be the label of the entry you select.
[reply] b
(b: 6.17, a: 5.88)
